Biological target: human Nav1.7 (full length) (human) (UniProt Q15858)
Assay: cell-based or functional assay
experimental.endpoint: % inhibition of inward current following P02 voltage protocol, 25 µg/ml (%)

INSERT INTO measurements (binder, numeric_value) VALUES
  ('9G6 (antibody, human IgG1, V domains shown) VH: EVQLVQPGAELTKPGASVKVSCNTSGYTFTGYYIDWVRQVPGEGLEWMGRIDPEDGDTKYAQKFQGRVTITADTSTTTAYMELSSLRSEDTAVYYCSLGVDYWGQGTQVTVSS VL: ATMLTQSPGSLSVVPGESASISCKTSQSLVHSDGKTYLYWLLQKPGQSPQRLIYQVSNRDSGVPDRFTGSGSGTDFTLKISGVKAEDAGVYYCAQTTYDPVTFGQGTKVELK', 22.8),
  ('9A6 (antibody, V domains shown) VH: EVQLVQPGAELRNPGASVKVSCKASGYTYTSAYIVWVRQAPGEGLEWMGRIDPEDGGTKYAQKFQGRVTFTADTSTNTAYVELSSLRSDDTAVYYCTAGLDYWGKGTLVTVSS VL: ATMLTQSPGSLSVVPGESASISCKASQSLVHSDGMTYLYWLQQKPGQSPQRLIYRVSRRGSGVPDRFTGSGSGTDFTLNISDMKAEDAGVYYCAQDTYYPYSFGSGTSVEIK', 28);
